src = PubChem BioAssay AID504832

Test: Primary qHTS for delayed death inhibitors of the malarial parasite plastid, 48 hour incubation
Conditions: P. falciparum luciferase growth in erythrocytes; series mostly up to 28.7 µM
Among all 310,000 compounds or so, about 18,000 (5.8%) were called active. Another 22% or so got no clear call; they are omitted. The call rests on the fitted dose curve; in most records, active means well fitted inhibition curve with a large enough effect; inconclusive means small, poorly fitted or top-dose-only effect, or another doubt; inactive means no such curve, though single readings can be large or run the other way. This excerpt belongs to a sample that is enriched for actives.
Outcome codes: yes = active, no = inactive

{"compound": "COc1ccc(-c2cn(-c3ccc(C)cc3)c(=O)n2CC(=O)Nc2ccc(OC)c(OC)c2)cc1", "qualitative-label": "yes"}
{"compound": "Clc1ccc(Nc2ncnc3c2nnn3Cc2ccccc2)cc1", "qualitative-label": "no"}
{"compound": "CCc1ccc(OCC2c3cc(OC)c(OC)cc3CCN2C(C)=O)cc1 (configuration not stated)", "qualitative-label": "no"}
{"compound": "CNC(=O)C1CC(=O)N(c2ccc(OCC(=O)Nc3ccccc3C)cc2)C1 (configuration not stated)", "qualitative-label": "no"}
{"compound": "Cc1ccc(CNCc2ccc3c(c2)OCO3)c(C)c1", "qualitative-label": "no"}
{"compound": "CC(C)CCN(C(=O)c1csnn1)C(C(=O)NC1CCCC1)c1ccccc1 (configuration not stated)", "qualitative-label": "no"}
{"compound": "Cc1cc(N2C(=O)C(O)=C(C(=O)c3ccc(C)o3)C2c2ccc(OCc3ccccc3)cc2)no1 (configuration not stated)", "qualitative-label": "no"}
{"compound": "Cc1ccccc1CN1C[C@@H]2C[C@@H](c3cn(C)nc3-c3ccccc3)N3CCC[C@@]23C1=O", "qualitative-label": "yes"}
{"compound": "Cc1cccc(N(C(=O)c2sc(C)nc2C)C(C(=O)NCC2CCCO2)c2ccccc2)c1 (configuration not stated)", "qualitative-label": "no"}
{"compound": "O=C(COC(=O)c1cnccn1)Nc1ccc(Cl)cc1C(F)(F)F", "qualitative-label": "no"}
{"compound": "Cc1onc(C(=O)Nc2ccc3c(c2)OCO3)c1[N+](=O)[O-]", "qualitative-label": "no"}
{"compound": "C=CCOc1c(CNn2cn[nH]c2=S)cccc1OC", "qualitative-label": "no"}
{"compound": "OC(COc1cccc2ccccc12)CN1CCN(c2ccccn2)CC1 (configuration not stated)", "qualitative-label": "no"}
{"compound": "OC(CNCc1ccc2c(c1)OCO2)COc1ccccc1 (configuration not stated)", "qualitative-label": "yes"}
{"compound": "COc1ccc(NC(=O)Cn2nnc(C(=O)NCCc3ccc(OC)c(OC)c3)c2N)cc1", "qualitative-label": "no"}
{"compound": "CC(C)n1c(C(O)c2ccccc2)nc2ccccc21 (configuration not stated)", "qualitative-label": "no"}
{"compound": "COc1cccc(CNn2cn[nH]c2=S)c1OCc1ccccc1", "qualitative-label": "yes"}
{"compound": "Cc1ccsc1C(=O)NCCc1ccco1", "qualitative-label": "no"}
{"compound": "Cc1ccc(C(CC(=O)O)Nc2nc(N3CCCCC3)nc(N3CCCCC3)n2)cc1 (configuration not stated)", "qualitative-label": "no"}
{"compound": "CCN(CC)C(=O)c1nc[nH]c1C(=O)N(C)Cc1ccccc1", "qualitative-label": "no"}
{"compound": "COc1ccc2[nH]c(=O)c(C3c4cc(OC)c(OC)cc4CCN3C(=O)c3ccco3)cc2c1 (configuration not stated)", "qualitative-label": "yes"}
{"compound": "COc1cccc(NS(=O)(=O)c2ccc(-c3coc(C)n3)cc2)c1", "qualitative-label": "no"}

====

Assay: Primary qHTS for delayed death inhibitors of the malarial parasite plastid, 48 hour incubation
Conditions: P. falciparum luciferase growth in erythrocytes; series mostly up to 28.7 µM
The campaign covered roughly 310,000 compounds. About 18,000 (5.8%) were called active. Inconclusive results (about 22%) are left out. The full list was thinned out, with actives kept by preference.
experimental-endpoint: outcome

{"molecule": "Cc1nc([N+](=O)[O-])cn1CC(=O)Nc1ccc(Cl)cc1", "assay-result": "inactive"}
{"molecule": "COc1ccc2[nH]c(=O)c(CN(CC3CCCO3)C(=O)Nc3ccccc3)cc2c1 (stereo not drawn)", "assay-result": "inactive"}
{"molecule": "O=C(CCc1ccccc1)Nc1ccnn1C1CCN(Cc2ccc(OCCO)cc2)CC1", "assay-result": "inactive"}

====

Assay: Primary qHTS for delayed death inhibitors of the malarial parasite plastid, 48 hour incubation
Conditions: P. falciparum luciferase growth in erythrocytes; series mostly up to 28.7 µM
Hit rate of the full screen: of about 310,000 compounds, about 18,000 (5.8%) were called active. Another 22% or so got no clear call; they are omitted. Calls follow the shape of the dose curve; as a rule, active = well fitted inhibition curve with a large enough effect; inconclusive = small, poorly fitted or top-dose-only effect, or another doubt; inactive = no such curve, though single readings can be large or run the other way. The full list was thinned out, with actives kept by preference.
Outcomes: active, inactive

{"compound": "O=C(Nc1ccccc1N1CCN(C(=O)c2ccccc2)CC1)c1ccco1", "qualitative-label": "inactive"}
{"compound": "Cc1ccc2c(c1)N(CC(=O)N1CCOCC1)C(=O)CO2", "qualitative-label": "inactive"}
{"compound": "COc1ccc(C2C(C(C)=O)=C(O)C(=O)N2Cc2cccnc2)cc1 (centres undefined)", "qualitative-label": "inactive"}
{"compound": "O=C1[C@H]2[C@@H](c3ccc(F)cc3)N3C(=O)N(c4ccc(C(F)(F)F)cc4)C(=O)[C@@]3(Cc3ccccc3)[C@H]2C(=O)N1C1CCCCC1", "qualitative-label": "active"}
{"compound": "O=C(OCCN=C1NS(=O)(=O)c2ccccc21)c1cccc([N+](=O)[O-])c1", "qualitative-label": "inactive"}
{"compound": "CC1=C(C(=O)OC2CCCCC2)C(c2ccccc2F)NC(=O)N1 (centres undefined)", "qualitative-label": "inactive"}
{"compound": "O=C(Nc1ccc(N2CCN(C(=O)c3ccccc3)CC2)c(Cl)c1)c1ncn[nH]1", "qualitative-label": "active"}
{"compound": "Cc1cc(NC(C)C)n2c(nc3ccccc32)c1C#N", "qualitative-label": "inactive"}
{"compound": "O=S(=O)(c1cccc(-c2nnc(SC(F)F)n2-c2ccccc2)c1)N1CCCCC1", "qualitative-label": "active"}

====

Test: Primary qHTS for delayed death inhibitors of the malarial parasite plastid, 48 hour incubation
Details: P. falciparum luciferase growth in erythrocytes; series mostly up to 28.7 µM
Out of some 310,000 compounds screened, about 18,000 (5.8%) were called active. Not shown: some 22% with an inconclusive outcome. Calls follow the shape of the dose curve; as a rule, active = well fitted inhibition curve with a large enough effect; inconclusive = small, poorly fitted or top-dose-only effect, or another doubt; inactive = no such curve, though single readings can be large or run the other way. This excerpt belongs to a sample that is enriched for actives.
Possible outcomes: active, inactive

{"compound": "Cc1ccc(CS(=O)Cc2ccc(C(=O)N3CCOCC3)o2)cc1 (stereo not drawn)", "qualitative-label": "inactive"}
{"compound": "CC(=O)c1ccc(NC(=O)Cn2c(=O)oc3ccccc32)cc1", "qualitative-label": "inactive"}
{"compound": "CCc1ccc(-c2cc3c(=O)n(CC(=O)NCCCN4CCN(Cc5ccccc5)CC4)nc(C)n3n2)cc1", "qualitative-label": "inactive"}
{"compound": "CC(=O)c1c(C)[nH]c(C(=O)OCC(=O)Nc2c(C)n(C)n(-c3ccccc3)c2=O)c1C", "qualitative-label": "inactive"}
{"compound": "CCn1c(=O)c(=O)[nH]c2c(=O)oc3ccc(S(=O)(=O)Nc4ccc(OC)cc4)cc3c21", "qualitative-label": "inactive"}
{"compound": "CC(C)C(c1nnnn1Cc1ccccc1)N1CCC(C(N)=O)CC1 (stereo not drawn)", "qualitative-label": "inactive"}
{"compound": "COC(=O)c1ccc(Nc2ncnc3sccc23)cc1", "qualitative-label": "inactive"}
{"compound": "Cc1ccnc(NC(=O)CNC(=O)c2ccccc2)c1", "qualitative-label": "inactive"}
{"compound": "CN(CC(=O)NCc1ccc(Cl)cc1)S(=O)(=O)c1cccs1", "qualitative-label": "inactive"}
{"compound": "CC(=O)c1cccc(NC(=S)N2CCN(S(C)(=O)=O)CC2)c1", "qualitative-label": "inactive"}
{"compound": "Cc1cc(C)cc(NC(=O)NCc2ccccn2)c1", "qualitative-label": "inactive"}
{"compound": "COc1ccc(S(=O)(=O)N2CCOCC2)cc1NC(=O)CSc1cc(C)ccc1C", "qualitative-label": "inactive"}
{"compound": "Cc1ccc(C(=O)NCCN2CCOCC2)cc1C", "qualitative-label": "inactive"}
{"compound": "Cc1cc(C)cc(C(=O)NCCN2CCOCC2)c1", "qualitative-label": "inactive"}
{"compound": "COc1ccc(S(=O)(=O)N2CCCCC2)cc1NC(=O)c1cc([N+](=O)[O-])ccc1N1CCOCC1", "qualitative-label": "active"}
{"compound": "Cc1cccc(-c2c(NC(=O)c3ccco3)oc3ccc(Cl)cc3c2=O)c1", "qualitative-label": "inactive"}
{"compound": "O=C1N/C(=C/c2cccs2)C(=O)N1Cc1ccc(F)cc1", "qualitative-label": "inactive"}
{"compound": "Cc1cccc(N(C(=O)c2ccc(CN3CCOCC3)o2)C(C(=O)NC2CCCCC2)c2ccc(F)cc2)c1 (stereo not drawn)", "qualitative-label": "inactive"}
{"compound": "COc1ccc(C(=O)N2CCCC(C(=O)c3ccccc3OC)C2)cc1OC (stereo not drawn)", "qualitative-label": "inactive"}
{"compound": "CCCc1c(C(=O)N/N=C(\\C)CCc2ccc(OC)cc2)nnn1-c1nonc1N", "qualitative-label": "inactive"}
{"compound": "O=C(N/N=C/c1ccc(O)c2ccccc12)c1cccnc1", "qualitative-label": "inactive"}
{"compound": "Cn1ccc(NC(=O)Nc2ccc(Cl)cc2)n1", "qualitative-label": "inactive"}
{"compound": "O=S(=O)(c1ccc(SCc2ccccc2)nc1)N1CCCCCC1", "qualitative-label": "inactive"}
{"compound": "O=C(CSCc1ccccc1)Nc1ccccc1", "qualitative-label": "inactive"}
{"compound": "CCCc1cc(C(=O)Nc2ccc(Cl)cn2)cs1", "qualitative-label": "inactive"}
{"compound": "CCN(CC)C(=O)c1sc2nc(-c3ccccc3)ccc2c1N", "qualitative-label": "inactive"}
{"compound": "Cc1c(Cl)cccc1NC(=S)NCC(O)c1ccccc1 (stereo not drawn)", "qualitative-label": "inactive"}
{"compound": "Fc1ccc(Cn2nnnc2C(c2cccs2)N2CCCCCC2)cc1 (stereo not drawn)", "qualitative-label": "active"}
